Data provenance is patent US20220380341A1.

Molecular target: HIV-1 NefNL4-3 (Human immunodeficiency virus type 1 group M subtype B, UniProt P03406, A33V/T15A/T51N/V11I)
Experiment: Surface plasmon resonance binding to recombinant full-length Nef (NL4-3)
Details: Nef NL4-3 Binding, SPR 2-state fitting KD, Table 1; 2-step induced-fit model
hey, just use met if measured Kd is less than 3 µM, otherwise not met

State whether 3 µM exceeds Kd recorded for O=C1CCCN1CCc1c(-c2ccc(C(F)(F)F)cc2)nn(-c2nc3ccccc3[nH]2)c1O [Compound I-132] . met

Kd under 3 µM? Item: O=S(=O)(NCc1nn(-c2nc3ccccc3[nH]2)c(O)c1CCc1ccc(F)cc1)c1cccnc1 [Compound I-774] met

I'd appreciate it if you could check whether Oc1c(CC2CCOCC2)c(-c2ccc(F)cc2)nn1-c1nc2ccccc2[nH]1 [Compound I-151] has Kd smaller than 3 µM. not met

Regarding COC(=O)N1CCC(c2nn(-c3nc4ccccc4[nH]3)c(O)c2CCc2ccc(F)cc2)CC1 [Compound I-740] , kindly confirm whether its Kd is beneath 3 µM. met

# TODO verify Kd < 3 µM strictly for this compound: CC(C)(C)OC(=O)c1ccc(-c2nn(-c3nc4ccccc4[nH]3)c(O)c2CCc2ccc(F)cc2)cc1 [Compound I-208] not met

Lab note: Kd threshold 3 µM. Does this compound come in strictly under it? CC[C@H](C)[C@H](O)C(=O)N1CCC(c2nn(-c3nc4ccccc4[nH]3)c(O)c2CCc2ccc(F)cc2)CC1 [Compound I-732] not met

Is the reported Kd for O=S(=O)(c1cccnc1)N1CCC(c2nn(-c3nc4ccccc4[nH]3)c(O)c2CCc2ccc(F)cc2)CC1 [Compound I-742] strictly below 3 µM? met

Would you kindly verify if Kd of O=C(c1nn(-c2nc3ccccc3[nH]2)c(O)c1CCc1ccc(F)cc1)N1CCCCC1 [Compound I-406] is strictly less than 3 µM? met

Could you please tell me whether Kd recorded for CC(C)(C)OC(=O)N1C[C@@H]2[C@H](C1)[C@H]2c1nn(-c2nc3ccccc3[nH]2)c(O)c1CCc1ccc(F)cc1 [Compound I-209] is less than 3 µM? not met

Given CC(C)(C)OC(=O)N1CCC(c2nn(-c3nc4cc(F)c(F)cc4[nH]3)c(O)c2CCc2ccc(F)cc2)CC1 [Compound I-219] , is recorded Kd strictly lower than 3 µM? met

In plain terms, does CC(C)(C)OC(=O)N1CCC(c2nn(-c3nc4ccccc4[nH]3)c(O)c2CCc2ccc(F)cc2)CC1 [Compound I-202] come in under 3 µM for Kd? met

Problem: For the compound CC(C)(C)OC(=O)N1CCC(CCc2c(-c3ccc(C(F)(F)F)cc3)nn(-c3nc4ccccc4[nH]3)c2O)CC1 [Compound I-204] , is Kd under 3 µM? met

Here's an entry: COCCc1nn(-c2nc3ccccc3[nH]2)c(O)c1CCc1ccc(F)cc1 [Compound I-125] . Is its Kd below 3 µM? not met

Input CC(C)(O)C(=O)N1CCC(CCc2c(C3CC3)nn(-c3nc4cc(Cl)ccc4[nH]3)c2O)CC1 [Compound I-712] ; condition: Kd strictly below 3 µM. Does it hold? met

Identify whether the compound Oc1c(CCc2ccc(F)cc2)c(-c2cccnc2)nn1-c1nc2ccccc2[nH]1 [Compound I-121] records Kd below 3 µM. met
